study.target: SETD2(1434-1711) (Homo sapiens, UniProt Q9BYW2)
Construct: SETD2 (1434-1711) Assay; catalogue N/A
Sequence (Q9BYW2 1434-1711): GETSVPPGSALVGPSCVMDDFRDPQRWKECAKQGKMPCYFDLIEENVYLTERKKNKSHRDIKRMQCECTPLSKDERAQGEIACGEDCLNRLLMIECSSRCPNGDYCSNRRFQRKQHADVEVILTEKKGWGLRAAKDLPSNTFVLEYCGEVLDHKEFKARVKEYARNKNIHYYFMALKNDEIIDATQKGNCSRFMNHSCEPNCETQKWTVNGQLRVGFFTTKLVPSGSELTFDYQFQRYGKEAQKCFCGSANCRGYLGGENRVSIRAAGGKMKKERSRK
measurement.protocol: SETD2 (1434-1711) assay
Format: biochemical
experimental.conditions: read-out: SETD2 (1434-1711)
property.label: IC50

Cc1ccc(F)c2cc(C(=O)Nc3cccc([C@H]4CCN5C(=O)CC[C@H]5C4)c3)[nH]c12 [compound 90]    30 nM
Cc1cccc2cc(C(=O)NC(C)c3ccccc3)[nH]c12 (centres unmarked) [compound 749]    > 200000 nM
CC(=O)N1CCN([C@H]2CCC[C@@H](NC(=O)c3cc4c(F)ccc(C)c4[nH]3)C2)C[C@H]1CO [compound 1098]    30 nM
Cc1ccc(F)c2cc(C(=O)Nc3cccc(-c4cnn(CCN5CCOCC5)c4)c3)[nH]c12 [compound 164]    100 nM
Cc1cccc2cc(C(=O)NCc3cccc(CN4CCOCC4)c3)[nH]c12 [compound 709]    78400 nM
Cc1cccc2cc(C(=O)N3CCn4ncnc4C3)[nH]c12 [compound 812]    > 200000 nM
Cc1ccc(F)c2cc(C(=O)Nc3cccc(N4CCN(C(C)C)C(C)C4)c3)[nH]c12 (centres unmarked) [compound 205]    30 nM

Recorded IC50 of Cc1cccnc1C(CN1CCOCC1)N(C)C(=O)c1cc2cccc(C)c2[nH]1 (centres unmarked) [compound 601] , please.
> 50000 nM
